Provenance of the data: patent US20070219214A1

Collected ED50 values appear next to each entry.
- test-system: NK2-receptor (Cavia porcellus, UniProt Q64077)
- Construct: from tissue; host or cells: whole animal (Pirbright-White guinea pigs), in vivo
- Sequence (Q64077 whole entry): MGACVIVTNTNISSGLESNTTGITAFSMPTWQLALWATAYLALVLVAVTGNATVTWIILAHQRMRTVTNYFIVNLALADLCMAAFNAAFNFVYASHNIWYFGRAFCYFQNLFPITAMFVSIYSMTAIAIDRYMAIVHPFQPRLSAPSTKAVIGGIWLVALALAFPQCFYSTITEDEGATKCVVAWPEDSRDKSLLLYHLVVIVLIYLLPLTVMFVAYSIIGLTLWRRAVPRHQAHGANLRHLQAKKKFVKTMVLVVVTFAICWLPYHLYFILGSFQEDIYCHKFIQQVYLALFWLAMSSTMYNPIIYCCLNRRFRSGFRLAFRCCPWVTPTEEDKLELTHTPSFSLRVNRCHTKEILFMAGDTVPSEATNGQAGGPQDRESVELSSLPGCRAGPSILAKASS
- method-description: NK2-receptor-antagonistic effectiveness in vivo, NKA-induced late hypotension, bronchoconstriction and colonic pressure in anaesthetised guinea pigs
- conditions-used: guinea pig, iv, read-out: ED50 iv after 1 min (cumulative), NK2 (late hypotension)
Use µmol/kg as the unit, but write only the number.

Before answering, review these 3 worked examples.
molecule="CN(C)C(=O)C1(N2CCCCC2)CCN(CCC(CN(C)C(=O)c2cccnc2)c2ccc(Cl)c(Cl)c2)CC1 (stereo not shown)" test_system="NK2-receptor (Cavia porcellus, UniProt Q64077)" observed_measurement=0.209
molecule="CN(C)C(=O)C1(N2CCCCC2)CCN(CCC(CN(C)C(=O)c2ccc(Cl)nc2)c2ccc(Cl)c(Cl)c2)CC1 (stereo not shown)" test_system="NK2-receptor (Cavia porcellus, UniProt Q64077)" observed_measurement=0.181
molecule=CN(C)C(=O)C1(N2CCCCC2)CCN(CC[C@H](CN(C)C(=O)c2ccc(O)cc2)c2ccc(Cl)c(Cl)c2)CC1 test_system="NK2-receptor (Cavia porcellus, UniProt Q64077)" observed_measurement=0.04

Reported ED50, molecule CN(C)C(=O)C1(N2CCCCC2)CCN(CC[C@H](CN(C)C(=O)c2ccccc2)c2ccc(Cl)c(Cl)c2)CC1 : ____
0.044
